Quick list: pIC50 per entry.
system-under-test: KRAS WT (Homo sapiens (Human))
Sequence (P01116 other isoform, or with tags, fused parts or gaps): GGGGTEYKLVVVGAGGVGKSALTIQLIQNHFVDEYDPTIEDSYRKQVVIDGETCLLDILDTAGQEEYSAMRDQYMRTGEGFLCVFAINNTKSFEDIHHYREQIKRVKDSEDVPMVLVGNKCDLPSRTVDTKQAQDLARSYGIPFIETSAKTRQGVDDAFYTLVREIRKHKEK
Quick note: pIC50 means taking -log10 of the concentration in moles per liter.

compound: F/C=C1/CN2CCC[C@@]2(COc2nc3c4c(nc(-c5c(C6CC6)c(Cl)cc6[nH]ncc56)c(F)c4n2)OC[C@@H]2COCCCN32)C1 [Ex-1]
pIC50: 9.06
--
compound: CCc1c(F)ccc2cc3[nH]nc(C)c3c(-c3nc4c5c(nc(OC[C@@]67CCCN6C[C@H](F)C7)nc5c3F)N3CCCOC[C@H]3CO4)c12 [Ex-6]
pIC50: 8.80
--
compound: CCc1c(F)ccc2cc3[nH]nc(C)c3c(-c3nc4c5c(nc(OC[C@@]67CCCN6C/C(=C\F)C7)nc5c3F)N3CCCOC[C@H]3CO4)c12 [Ex-7]
pIC50: 8.85

Now for a further compound.
// recorded pIC50 for CCc1c(F)ccc2cc3[nH]ncc3c(-c3nc4c5c(nc(OC[C@@]67CCCN6C[C@H](F)C7)nc5c3F)N3CCCOC[C@H]3CO4)c12 [Ex-2] : 8.96

====

protocol: Rat IV/PO pharmacokinetic studies
Assay type: in vivo
measurement-setup: male, plasma, IV 1 mg/kg, read-out: Vd
measured-parameter: Vd (L/kg)
Give just the numeric value; L/kg need not be written.

compound: Fc1c(-c2c(C3CC3)c(Cl)cc3[nH]ncc23)nc2c3c(nc(OC[C@@]45CCCN4C[C@H](F)C5)nc13)N1CCCOC[C@H]1CO2 [Ex-3]
measured-parameter: Vd
value-observed: 4

Now for a further compound.
// recorded Vd for CCc1c(F)ccc2cc3[nH]nc(C)c3c(-c3nc4c5c(nc(OC[C@@]67CCCN6C[C@H](F)C7)nc5c3F)N3CCCOC[C@H]3CO4)c12 [Ex-6] : 5.1

====

system-under-test: HRAS (Homo sapiens (Human))
Sequence (P01112 other isoform, or with tags, fused parts or gaps): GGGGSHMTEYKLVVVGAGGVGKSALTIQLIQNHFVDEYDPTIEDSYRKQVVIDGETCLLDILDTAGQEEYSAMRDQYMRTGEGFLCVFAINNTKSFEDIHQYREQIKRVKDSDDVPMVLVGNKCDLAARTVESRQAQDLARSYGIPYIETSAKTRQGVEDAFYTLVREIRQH
Quick list: IC50 per entry.
Give just the numeric value; nM need not be written.

In the examples that follow, each entry is paired with its recorded IC50.
sample-smiles: CCc1c(F)ccc2cc3[nH]ncc3c(-c3nc4c5c(nc(OC[C@@]67CCCN6C[C@H](F)C7)nc5c3F)N3CCCOC[C@H]3CO4)c12
IC50, nM: 2740
//
sample-smiles: CCc1c(F)ccc2cc3[nH]nc(C)c3c(-c3nc4c5c(nc(OC[C@@]67CCCN6C/C(=C\F)C7)nc5c3F)N3CCCOC[C@H]3CO4)c12
IC50, nM: 2180

// recorded IC50 for `CCc1c(F)ccc2cc3[nH]ncc3c(-c3nc4c5c(nc(OC[C@@]67CCCN6C/C(=C\F)C7)nc5c3F)N3CCCOC[C@H]3CO4)c12` : 1270

// recorded IC50 for `F/C=C1\CN2CCC[C@@]2(COc2nc3c4c(nc(-c5c(C6(F)CC6)c(Cl)cc6[nH]ncc56)c(F)c4n2)OC[C@@H]2COCCCN32)C1` : 4680

====

protocol: Dog IV/PO pharmacokinetic studies
Type: in vivo
measurement-setup: male, plasma, IV 0.25 mg/kg (Ex-2 0.05 mg/kg), read-out: MRT
Quick list: MRT per entry.
// unit must come after the numeric part

compound: CCc1c(F)ccc2cc3[nH]nc(C)c3c(-c3nc4c5c(nc(OC[C@@]67CCCN6C[C@H](F)C7)nc5c3F)N3CCCOC[C@H]3CO4)c12 [Ex-6]
measured-parameter: MRT
value-observed: 7.8 h

Now for a further compound.
// recorded MRT for Fc1c(-c2c(C3CC3)c(Cl)cc3[nH]ncc23)nc2c3c(nc(OC[C@@]45CCCN4C[C@H](F)C5)nc13)N1CCCOC[C@H]1CO2 [Ex-3] : 3.6 h
